Target: human CSF1-R (FMS) (Homo sapiens, UniProt P07333)
Sequence (P07333 553-961): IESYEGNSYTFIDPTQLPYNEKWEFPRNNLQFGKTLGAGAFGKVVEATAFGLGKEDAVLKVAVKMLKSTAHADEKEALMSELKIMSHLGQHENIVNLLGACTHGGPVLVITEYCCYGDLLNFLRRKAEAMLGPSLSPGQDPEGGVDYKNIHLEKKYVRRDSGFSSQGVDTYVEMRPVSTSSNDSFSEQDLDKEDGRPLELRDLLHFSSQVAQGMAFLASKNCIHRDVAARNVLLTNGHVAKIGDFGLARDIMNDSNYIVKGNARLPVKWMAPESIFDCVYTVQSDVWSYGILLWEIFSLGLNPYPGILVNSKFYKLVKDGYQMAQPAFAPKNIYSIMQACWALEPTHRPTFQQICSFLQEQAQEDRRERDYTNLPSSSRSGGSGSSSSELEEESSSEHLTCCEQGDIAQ
pIC50: −log10 of the molar value.
measured property: pIC50

Field: example entries. Status: answers known.
COc1ccc(Nc2nccc(Sc3ccc(NC(=O)CC#N)cc3)n2)cc1OC ... > 7.00
C=CC(=O)Nc1ccc(Sc2ccnc(Nc3cccc(N4CCOCC4)c3)n2)cc1 ... > 6.30
C=CC(=O)Nc1ccc(Sc2ccnc(Nc3cc(C)cc(C)c3)n2)cc1 ... > 6.30

Problem: I would be grateful if you could share the reported pIC50 for `C=CC(=O)Nc1ccc(Sc2nc(Nc3ccc(N4CCOCC4)cc3)ncc2C)cc1` .
Solution: > 6.30
